# Tested on: HOP-62
# testMethodNotes: NCI tumour cell line growth inhibition, 48 h
Active and inactive are the calls of the source. Cut-off read from the data, not from the text of the source: active = GI50 up to about 1.1 µM and inactive = higher.

compound: COC(=O)c1ccc2cc(O)c(O)cc2c1
targetEntity: HOP-62
GI50: 56 µM (inactive)
//
compound: CNc1ccc2ncccc2c1[N+](=O)[O-]
targetEntity: HOP-62
GI50: > 100 µM (inactive)
//
compound: COc1ncc(/C=C2\OC(=O)c3ccccc32)c(OC)n1
targetEntity: HOP-62
GI50: 12.1 µM (inactive)
//
compound: O=C1C(c2ccccc2)=[N+]([O-])c2ccc(Cl)cc21
targetEntity: HOP-62
GI50: 63.4 µM (inactive)
//
compound: O=C1OC(c2ccccc2)=N/C1=C/NC(Cc1c[nH]c2ccccc12)C(=O)O (stereo unspecified)
targetEntity: HOP-62
GI50: > 100 µM (inactive)
//
compound: O=C(NCO)NCOCn1c(=O)n(CO)c(=O)n(CO)c1=O
targetEntity: HOP-62
GI50: > 100 µM (inactive)
//
compound: O=C1C=C(C2=C(C3=CC(=O)c4ccccc4C3=O)C(=O)c3ccccc3C2=O)C(=O)c2ccccc21
targetEntity: HOP-62
GI50: 14.8 µM (inactive)
//
compound: N#CCC(=O)N/N=C(\C(=O)Nc1ccc(Cl)c(Cl)c1)C1CN(c2ccccc2)N=C1N (stereo unspecified)
targetEntity: HOP-62
GI50: > 100 µM (inactive)
//
compound: Cc1ccccc1/C=C/c1csnn1
targetEntity: HOP-62
GI50: > 100 µM (inactive)
//
compound: C1=C(c2ccccc2)SC(N2CCCCC2)S1 (stereo unspecified)
targetEntity: HOP-62
GI50: > 100 µM (inactive)
//
compound: CCOC(=O)/C(C(=O)Nc1cccc(Cl)c1)=C(/N)N1CCCC1
targetEntity: HOP-62
GI50: > 100 µM (inactive)

----------
# System: UACC-257
# testMethodNotes: NCI tumour cell line growth inhibition, 48 h
The source made the active and inactive calls. Rule as the data show it: active = GI50 up to about 1.1 µM and inactive = higher.
Classes used: yes (1) for active, no (0) for inactive

molecule: O=C1NC(=S)NC(=O)C1=Cc1ccc2ccccc2n1
targetEntity: UACC-257
classLabel: no (0)
//
molecule: Cc1ccc(OCC2OC(n3cnc4c(N(C)C)nc(Br)nc43)CC2Oc2ccc(C)cc2)cc1 (configuration not stated)
targetEntity: UACC-257
classLabel: no (0)
//
molecule: CCOC(=O)CCC(NC(=O)C(N)c1ccc([N+](=O)[O-])cc1)C(=O)NC(CCC(=O)OCC)C(=O)OCC (configuration not stated)
targetEntity: UACC-257
classLabel: no (0)
//
molecule: O=[N+]([O-])c1nccn1COCCF
targetEntity: UACC-257
classLabel: no (0)
//
molecule: CC1(O)CC(=O)c2c(cc3ccc(-c4c5c(c(O)c6c(O)cccc46)C(=O)CC(C)(O)C5)c(O)c3c2O)C1 (configuration not stated)
targetEntity: UACC-257
classLabel: yes (1)
//
molecule: CCOc1cc(NC(C)=O)ccc1C(=O)NNS(=O)(=O)c1ccc(Cl)cc1Cl
targetEntity: UACC-257
classLabel: no (0)
//
molecule: CC(=O)Nc1c(S(=O)(=O)c2ccccc2)c(C)c(C)n1CCN(C)C
targetEntity: UACC-257
classLabel: no (0)
//
molecule: O=C1c2cccc([N+](=O)[O-])c2C(=O)N1Cc1ccccc1
targetEntity: UACC-257
classLabel: no (0)
//
molecule: COC1C(=O)CCC2(CO2)C1(O)C1(C)OC1CC=C(C)C (configuration not stated)
targetEntity: UACC-257
classLabel: no (0)
//
molecule: COc1ccc(/C=C2/CSCC3=C2N=C(S)NC3c2ccc(OC)c(OC)c2OC)c(OC)c1OC (configuration not stated)
targetEntity: UACC-257
classLabel: no (0)
//
molecule: NNC(=S)N/N=C(\c1nc2ccc(Cl)cc2nc1O)C(O)c1cccc([N+](=O)[O-])c1 (configuration not stated)
targetEntity: UACC-257
classLabel: no (0)
//
molecule: O=S1(=O)C(=C(c2ccccc2)c2ccccc2)S(=O)(=O)c2ccccc21
targetEntity: UACC-257
classLabel: no (0)
//
molecule: N#CCCC1(CCC#N)CCCCCCC(CCC#N)(CCC#N)C(=O)C1=O
targetEntity: UACC-257
classLabel: no (0)
//
molecule: N/N=C1N=C(Cl)/C(=C/c2ccco2)N\1
targetEntity: UACC-257
classLabel: no (0)
//
molecule: O=c1ccc(=O)c2c(=O)c3ccccc3c(=O)c1=2
targetEntity: UACC-257
classLabel: no (0)
//
molecule: O=C1C2C(C(=O)N1c1ccccc1)C1c3ccccc3C2C2C(=O)N(c3ccccc3)C(=O)C21 (configuration not stated)
targetEntity: UACC-257
classLabel: no (0)
//
molecule: C[C@@H]1OC(=O)C[C@H]2CC(=O)N(CCC3CN(C(=O)OCc4ccccc4)c4ccccc43)C[C@@H]21 (some centres not stated)
targetEntity: UACC-257
classLabel: no (0)
//
molecule: COc1ccc(-c2cc(-c3cc(Cl)cc(Br)c3O)nc(O)n2)cc1
targetEntity: UACC-257
classLabel: no (0)
//
molecule: Nc1nc(Cl)c(N)c(NC23CC4CC(CC(C4)C2)C3)n1
targetEntity: UACC-257
classLabel: no (0)
//
molecule: C1CN(P2(N3CC3)=NP(N3CC3)(N3CC3)=NP(N3CC3)(N3CC3)=N2)CCO1 (configuration not stated) [FOTRETAMINE]
targetEntity: UACC-257
classLabel: no (0)
//
molecule: CC1=CC(=O)C(C)(C2=NC(C)(C)CO2)c2ccccc21 (configuration not stated)
targetEntity: UACC-257
classLabel: no (0)
//
molecule: OC1(c2ccccc2)C2CC=CC2C1(c1ccccc1)c1ccccc1 (configuration not stated)
targetEntity: UACC-257
classLabel: no (0)
//
molecule: O=S1(=O)OCCOS(=O)(=O)C1(Br)Br
targetEntity: UACC-257
classLabel: no (0)
//
molecule: O=C1C2C3C=CC(C2C(=O)N1CO)C1C2C(=O)N(CO)C(=O)C2C31 (configuration not stated)
targetEntity: UACC-257
classLabel: no (0)
//
molecule: Cc1ccc(NCC2(/N=C/c3ccccc3)OC(CO)C(O)C2O)cc1 (configuration not stated)
targetEntity: UACC-257
classLabel: no (0)
//
molecule: CCOc1cc2c(cc1O)C=C[C@@H]1[C@@H]2CC[C@]2(C)[C@@H](O)CC[C@@H]12
targetEntity: UACC-257
classLabel: no (0)
//
molecule: CCNCC(O)c1ccc(N)c([N+](=O)[O-])c1 (configuration not stated)
targetEntity: UACC-257
classLabel: no (0)
//
molecule: CCCSc1cc(Cl)c(C)cc1S(=O)(=O)n1ccnc1OCCCN(C)C
targetEntity: UACC-257
classLabel: no (0)
//
molecule: CSc1ccc(/C=C2\N=C(c3ccccc3)N(NC(=O)c3c(Cl)c(Cl)c(Cl)c(Cl)c3-c3nc4ccccc4[nH]3)C2=O)cc1
targetEntity: UACC-257
classLabel: no (0)
//
molecule: O=[N+]([O-])C(=C(N1CCOCC1)N1CCOCC1)/C(Cl)=C(\Cl)Br
targetEntity: UACC-257
classLabel: no (0)
//
molecule: COc1ccc(-c2ccccc2)c(N/N=C2\CCCNC2=O)c1
targetEntity: UACC-257
classLabel: no (0)
//
molecule: O=c1[nH]c(=O)n([C@H]2CCCO2)cc1F
targetEntity: UACC-257
classLabel: no (0)
//
molecule: COc1ccc(-c2cc(O)c3cc(Cl)ccc3n2)cc1
targetEntity: UACC-257
classLabel: no (0)
//
molecule: CC1=CC2CC(C)C1(C)CCc1ccoc12 (configuration not stated)
targetEntity: UACC-257
classLabel: no (0)
//
molecule: CCNc1cc2c3c(c1)CCCN3CCC2
targetEntity: UACC-257
classLabel: no (0)
//
molecule: Clc1cccc(N/N=N/c2ccc(-c3nc4ccccc4s3)cc2)c1
targetEntity: UACC-257
classLabel: no (0)
//
molecule: CCC12CCC(O)C1N(C)CCC2Sc1ccccc1 (configuration not stated)
targetEntity: UACC-257
classLabel: no (0)
//
molecule: O=C1CCC[C@H]2O[C@@H](COC(=O)c3ccccc3)C[C@H]2O1
targetEntity: UACC-257
classLabel: no (0)
//
molecule: Cc1cc(=O)oc2c(C)c(OCCCOc3ccc4c(C)cc(=O)oc4c3C)ccc12
targetEntity: UACC-257
classLabel: no (0)
//
molecule: CSC(=O)C[C@@]12O[C@@H]([C@@H](C)C3CCC4[C@@H]5C(O)CC6=CC(=O)C=C[C@]6(C)C5CC[C@@]43C)C[C@](C)(O1)C(C)(C)O2 (some centres not stated)
targetEntity: UACC-257
classLabel: no (0)
//
molecule: O=CC[C@H]1CCc2ccccc2C12CCC(=O)CC2
targetEntity: UACC-257
classLabel: no (0)
//
molecule: CNc1ccc(/C=C2\C=Cc3ccccc32)cc1
targetEntity: UACC-257
classLabel: no (0)
